Experimental Target: HLA-DR DRB4*0101 (human)
Assay Method Text: competition assay, purified HLA, inhibition of 125I-labelled reference peptide
Measured Endpoint: IC50 (µM)
Numbers only, in µM.

{"columns": ["Binder", "IC50 [µM]"],
 "data": [
  ["VMRMGDLHSLQNRNG (modifications not checked) [Flu.NS2.125]", 8.82]
]}

Lab note: next binder to report on.
Entry DILMRMSKMQLGSSS (modifications not checked) [Flu.NS2.87] has what IC50?
0.011
